tested on: K4 kissing-loop RNA reporter; assay: apparent KD of K4 kissing-loop reporter; higher = weaker reporter binding; settings: Eterna round: R107; input ligand: arginine 13.2 mM
parameterMeasured: apparent KD of K4 kissing-loop reporter (nM)
Value expressed in nM; do not type the unit.

Q. Report measured apparent KD of K4 kissing-loop reporter on K4 kissing-loop RNA reporter; entry: CGUUGUGAUGCUUGUGCUCAUACCGGAGAUACCAGUACCAUCACUUACCCUUGGCAGCUCAGUAAAGACAAGUGAUGUUUGUCAC [theeternabot_sameState_KL_Theo_A_38]
A. 528

Q. // fetch apparent KD of K4 kissing-loop reporter for UGCUGUCAAUAAGAUACCAGUUGGACUGAGUGAUGUUCAUCCAUUAUAUCUAUUCUGCUUAACCCUUGGCAGCUUGAUGACGUUU [theeternabot_exclusion_KL_Theo_B_6] ; system: K4 kissing-loop RNA reporter
A. 149

Q. Find apparent KD of K4 kissing-loop reporter for CGCAGUGAUGUUGCUAUUAUUCUUGGUUAACGAGGACCGGUACGGCCGCCACUCGAUGUCUGUCUAGUCCAGUGUUUUUUUGAGU [whbob_EX_Tryp_A_t8] on K4 kissing-loop RNA reporter and write it down.
A. 467

====

For each entry below, report its apparent KD of K4 kissing-loop reporter value.
system: K4 kissing-loop RNA reporter; assay: apparent KD of K4 kissing-loop reporter; higher = weaker reporter binding; conditions: Eterna round: R107; input ligand: tryptophan 2.4 mM
Write down the numeric answer in µM and omit the unit.

Q. Recall the reported apparent KD of K4 kissing-loop reporter of UCAUGUGCCAGUGAUGUUGGCGUACGUGAUACCAGACGAAUAAAAGUCCCUUGGCAGCACAAAUAAGCCAAGAUAGAUGAAUGAU [Exclusion Theophylline A GF 1] when tested on K4 kissing-loop RNA reporter.
A. 0.116

Q. Give apparent KD of K4 kissing-loop reporter for this entry on K4 kissing-loop RNA reporter: AGUGUGCAAAAGCACACUCAGCACAAGGACAAGGAUAUCUACUAAUAGAGAAGGUGUCCUUUCCUUAGUGAUGUUAAGGAGCUGA [Omei KL FMN A SS D v1]
A. 0.693

Q. Provide measured apparent KD of K4 kissing-loop reporter on K4 kissing-loop RNA reporter for GUUCUCGAAACUCAGUGAUGUUGAGUUGCAGAGGAUAUCCGCACAUGGAGAAGGCUGCAGUAAUUUAAAGACUCAGCGGCGCUCC [Riare] please.
A. 0.115

Q. Give K4 kissing-loop RNA reporter apparent KD of K4 kissing-loop reporter for the following sequence: CAUUACGGUCGCUUACCAAACCACUACUUCCGAGGACCGGUACGGCCGCCACUCGCCAGUGAUGUUGGCUCGGGCGGCCGAUUAU [Orrebeante]
A. 0.106

Q. GET apparent KD of K4 kissing-loop reporter | system: K4 kissing-loop RNA reporter | item: AAGUCAUAGGCAGGAUAUGCAUAGUAAUAAGGCAAUAUCUACGUAUAGAGUGAUGUUUUGUACCAGGCAGAAGGGCUACAUCAGU [FMN B Excl V9 (+4A/C)]
A. 0.424

Q. Please indicate recorded apparent KD of K4 kissing-loop reporter of UACAGGGAUAGUGAUGUUAUCCCAUGUGAUACCAGUGUCAUCCAACACCCUUGGCAGCAUACGGGCAGUGAUGUUGUUCUUGGUA [#17 K4 Theophylline A Exclusion] measured with K4 kissing-loop RNA reporter.
A. 0.0843

Q. For K4 kissing-loop RNA reporter, give the measured apparent KD of K4 kissing-loop reporter of the entry AAGCGUAAAAUGGCGGACAUACUGCUCCCACGAGGACCGGUACGGCCGCCACUCGAAUGCGGCAGUGAUGUUGCCGCCUUCGCGU [Zauslereed]
A. 0.0625

Q. Specify the recorded apparent KD of K4 kissing-loop reporter for GACUGGUUAACGAGUGAUGUUCGAUGGGAAGGAGCGCGCAGAAGUGCAGGUAGGUCGCCCUAUAACCAGGAAAUGGCUGGAUUAU [3.)] , system: K4 kissing-loop RNA reporter.
A. 0.145

====

system: MS2 coat protein; test: apparent KD of MS2 coat protein; designed switch direction (-1 OFF switch, 1 ON switch): -1; higher = weaker reporter binding; conditions: input ligand: FMN 200 uM
parameterMeasured: apparent KD of MS2 coat protein (nM)
Note: unit nM is implicit; provide only the numeric part.

Q. Respond only with apparent KD of MS2 coat protein recorded for AGUCAAACGGUAGGAUAUCCAUAUCGAGUGACCCUUUCAUAACAUGAGGAUCACCCAUGUCGGUGGGAGAAGGGCCGUAAGGCA [Mat - Exclusion NG 2 - Mod of JL - D70] (Eterna round: R96, puzzle: Exclusion NG 2)
A. 99.6

Q. Dear colleague, please send me the reported apparent KD of MS2 coat protein for CGGUGUAAGUCAGGAUAUGAGCGCAACUGACGAUCAGAAGGGACACAUGAGGAUCACCCAUGUGAUUUCUCAAUAUUAUACAUC [Prohibition 90 - Jieux - Exclusion NG 1] (Eterna round: R96, puzzle: Exclusion NG 1) when you can.
A. 30.7

Q. State its apparent KD of MS2 coat protein: AAGAACGUGCAAGGAUAUCUCCACCAAACCGGCAGAGAAGGUGCACAUGAGGAUCACCCAUGUGACCUAAGGCUCUUAUGAGCC [Teismace] (Eterna round: R96, puzzle: Exclusion NG 1)
A. 46.6

====

Hi there, I'd appreciate the recorded apparent KD of K4 kissing-loop reporter for every entry that follows.
system: K4 kissing-loop RNA reporter; experiment: apparent KD of K4 kissing-loop reporter; higher = weaker reporter binding; details: Eterna round: R107; input ligand: FMN 200 uM;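 note: bound reporter read as fluorescence of individual clusters on recovered sequencing chips by microscopy, with normalized cluster intensities fitted with a binding model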
Give the quantity in nM, number only.

Q. Give a short answer stating reported apparent KD of K4 kissing-loop reporter for UAUUUAGUGACGGCCGCCACUAUGGUGAUUUAUUUGUUUGAGUGAUGUUUUGAUGUUUGAUUUUGUAGGACCGGGUUAUGUGUUG [yyycmullin] .
A. 891

Q. Please give measured apparent KD of K4 kissing-loop reporter of the following entry: AAUAAAAUCACGGCCGCCACUGAUGCUAAUAUUAGCAGUGAUGUUGCUAUGUAGAUUUUAUUUAACAGGACCGGGUGAAUAUUUA [JR_SSTryptoB_Sub025]
A. 198

Q. Consider the sequence UGGAUAUAGUGAUGUUAUAUAGAGAUGGAUACCAGCAAAGAGAAUUGCCCUUGGCAGCCGAAAGAAGUAUCAUUAGAGAAGAAUG [ExTheophyl.Af] . State its measured apparent KD of K4 kissing-loop reporter.
A. 285

====

tested on: MS2 coat protein; assay: apparent KD of MS2 coat protein, switch OFF state (with FMN for OFF switches, without FMN for ON switches); designed switch direction (-1 OFF switch, 1 ON switch): -1; higher = weaker reporter binding; conditions: FMN input: 0 or 200 uM; Eterna round: R93 (includes R88 designs)
Where apparent KD of MS2 coat protein equals or exceeds 40 nM, the correct label is met; where it does not, the label is not met.

Q. Record AAUAAAGGAGGAUAUACUAAAGAAAUGAAAAGAAAUAAAGAACAUGAGGAUCACCCAUGUAGAAGGCCUAAUAA [Yaqub-Har] ; criterion: apparent KD of MS2 coat protein no lower than 40 nM. Met?
A. not met

Q. Exam item: decide whether the reported apparent KD of MS2 coat protein for AACAGUACAGGAUAUACAUGAGGAUCACCCAUGUAGAGAGAAUAAAACAAAAAUAAAAGUAGAAGGGUACUGGA [Ruby 48] is at least 40 nM.
A. not met

Q. Check the entry AAAAAACAUGAGGAUCACCCAUGUAAGGAUAUCGGAAAAGGAAAAAAAAAAAAGAAGACGAGAAGGUACACCAA : does apparent KD of MS2 coat protein equal or exceed 40 nM?
A. not met

Q. I'd appreciate it if you could say whether AAAAAACAUGAGGAUCACCCAUGUGAGGAUAUCGUGCAGAAAAAAAAAAAAAACUGCACGAGAAGGCACAUGAA has apparent KD of MS2 coat protein at least equal to 40 nM.
A. met

Q. # check: apparent KD of MS2 coat protein of AAAGAUUGAGGAUAUACAUGAGGAUCACCCAUGUAAAAAAAAAAAAGGGUGGAAGAAAGUAGAAGGCAACAAAA [Ex 3 May 46] is greater than or equal to 40 nM
A. met

Q. Quick check, apparent KD of MS2 coat protein >= 40 nM? AACAGUACAGGAUAUACAUGAGGAUCACCCAUGUGAGAAUUAAGUGGAGAACCACAAAGUAGAAGGGUACUGAA [Mat - Exclusion 3 - JL mod - D8]
A. met

Q. For this sequence, is measured apparent KD of MS2 coat protein 40 nM or higher? AAAUGACUAGGAUAUACAUGAGGAUCACCCAUGUGUUAAAAUAAAUACACAAAAGAAAGUAGAAGGAGUCAAAG [Mat - Exclusion 3 - Mayanna mod - D125]
A. met

Q. Please indicate if the recorded apparent KD of MS2 coat protein for AAAAAACAUGAGGAUCACCCAUGUCAGGAUAUGAACGAAAAUAAAUAAAAAUAAAAGUUCAGAAGGGACGAAAA [66%, Wbt, 17] meets or exceeds 40 nM.
A. met

Q. Determine whether measured apparent KD of MS2 coat protein meets or exceeds 40 nM for AACGGGCUAGGAUAUACACAAGCCUCAUAACAAAUAAACAAACAUGAGGAUCACCCAUGUAGAAGGAGCGCAAA [Quraaon]
A. met

Q. Hello, I need to know if CAGUACUGAGGAUAUACAUGAGGAUCACCCAUGUGGUUAAGCUAGGAAACUAGCACAUGUAGAAGGCAGUACUG [Ex3: 814] has measured apparent KD of MS2 coat protein not below 40 nM. Thanks!
A. not met

Q. Check if apparent KD of MS2 coat protein >= 40 nM (inclusive). Item: GGUUGGCGAGGAUAUACAUGAGGAUCACCCAUGUGAGUGAAAAAAGUGAGAAAGAAAAGUAGAAGGCGCUGACG [salish99-ex3-47]
A. met

Q. Dear colleague, could you confirm whether GAAGUGUUAGGAUAUCGAUGAAUAAUAAAACAAAGGAACAUUGAGAAGGAACAUGAGGAUCACCCAUGUAAAAC [May 82] has apparent KD of MS2 coat protein at or above 40 nM?
A. not met

Q. Assess whether reported apparent KD of MS2 coat protein for AGAAACUGAGGAUAUACUUUGGGAAAAGAAAAGAUGAUGUUACAUGAGGAUCACCCAUGUAGAAGGCAGAAAGA [Mat - Exclusion 2 - Mod - D152] sits at 40 nM or higher.
A. not met

Q. apparent KD of MS2 coat protein >= 40 nM for AAUAAGACAGGAUAUACUAAAGAAAUGAAAAGAAAUAAAGAACAUGAGGAUCACCCAUGUAGAAGGGUCAAUAA ['Apepi] ?
A. not met

Q. Quick check: does AAGUACUCAGGAUAUACAUGAGGAUCACCCAUGUGAAAAAAGCGUAAAAAACGCACAUGUAGAAGGGAGUACAA [JL In thr Red Again] have apparent KD of MS2 coat protein greater than or equal to 40 nM?
A. met

Q. Could you verify whether the entry AACAGUACAGGAUAUACAUGAGGAUCACCCAUGUGAAAAUUAAGUGGGAAACCACAAGGUAGAAGGGUACUGGA [Mat - Exclusion 3 - Eli mod - D64] shows apparent KD of MS2 coat protein of no less than 40 nM?
A. met

Q. Would you say AAAAAGCUAGGAUAUACGAAAAAAAAGGGUAGAAAAAAAAAACAUGAGGAUCACCCAUGUAGAAGGAGCAAAAA [Mat - Exclusion 2 - Tesla mod - D34] shows apparent KD of MS2 coat protein at minimum 40 nM?
A. met

Q. State whether the measured apparent KD of MS2 coat protein reaches 40 nM, counting equality as reaching it, for UCCUGACAUGAGGAUCACCCAUGUCAGGAUAUAGUAUGAAAAAAAAAAAAAAAAAAUACUAGAAGGGACAAGGG [Design 13: Super Stable Short Helix 4]
A. not met

Q. Could you tell me if the measured apparent KD of MS2 coat protein of AAAAAACAUGAGGAUCACCCAUGUGAGGAUAUGAUGAAAGAUUGAAAAAGGUUGAAAGUCAGAAGGUAUGUGAA [Exclusion 1.3] reaches 40 nM or more?
A. not met
